target: human PDE2A1 (Homo sapiens (Human), UniProt O00408); assay: IMAP FP PDE selectivity panel, human PDE2A1; format: biochemical; settings: Human PDE2, Lab A; read-out: Human PDE2 Ki (nM) - Lab A
Sequence (O00408 other isoform, or with tags, fused parts or gaps): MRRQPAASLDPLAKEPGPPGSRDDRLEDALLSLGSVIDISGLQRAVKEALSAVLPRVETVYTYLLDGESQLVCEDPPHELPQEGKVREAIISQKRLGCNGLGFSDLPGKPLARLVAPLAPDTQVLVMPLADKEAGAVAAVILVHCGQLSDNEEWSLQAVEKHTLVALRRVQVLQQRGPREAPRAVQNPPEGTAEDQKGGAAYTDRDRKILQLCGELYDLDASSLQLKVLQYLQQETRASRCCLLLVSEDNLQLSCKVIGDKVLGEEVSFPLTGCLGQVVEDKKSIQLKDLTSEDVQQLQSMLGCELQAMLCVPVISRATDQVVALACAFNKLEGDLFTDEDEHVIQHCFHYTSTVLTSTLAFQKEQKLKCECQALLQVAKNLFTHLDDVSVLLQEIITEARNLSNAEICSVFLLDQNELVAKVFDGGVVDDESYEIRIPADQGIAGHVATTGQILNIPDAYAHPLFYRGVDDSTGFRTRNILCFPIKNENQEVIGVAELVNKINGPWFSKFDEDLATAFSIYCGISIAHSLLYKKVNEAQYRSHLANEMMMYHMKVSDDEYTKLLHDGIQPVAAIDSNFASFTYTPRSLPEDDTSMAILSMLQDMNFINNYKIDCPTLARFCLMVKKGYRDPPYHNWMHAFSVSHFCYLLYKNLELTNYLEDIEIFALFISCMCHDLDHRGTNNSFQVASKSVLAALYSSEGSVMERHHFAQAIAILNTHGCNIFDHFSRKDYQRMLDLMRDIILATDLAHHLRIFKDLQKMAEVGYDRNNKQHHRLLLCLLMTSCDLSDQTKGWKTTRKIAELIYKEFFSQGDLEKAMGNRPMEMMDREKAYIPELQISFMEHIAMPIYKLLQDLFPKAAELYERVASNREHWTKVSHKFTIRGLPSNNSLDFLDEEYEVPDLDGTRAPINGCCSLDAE
Measured Ki accompanies every entry in the list below.
Parameter Measured: Ki (nM)

[[record]]
compound = "CCC(NC(=O)c1cc(=O)[nH]c(-c2ccccc2)n1)c1ccc(C(C)(C)C)cc1 (stereo not shown) [Example 163]"
parameter_measured = "Ki"
recorded_value = 36

[[record]]
compound = "COc1cc(C(C)NC(=O)c2cc(=O)[nH]c(-c3ccccc3)n2)ccc1C(F)(F)F (stereo not shown) [Example 155]"
parameter_measured = "Ki"
recorded_value = 143

[[record]]
compound = "CCc1ccc(C(C)NC(=O)c2cc(=O)[nH]c(C)n2)cc1 (stereo not shown) [Example 268]"
parameter_measured = "Ki"
recorded_value = 83

[[record]]
compound = "C[C@@H](NC(=O)c1cc(=O)[nH]c(-c2cccc(F)c2)n1)c1ccc(C(F)(F)F)cc1 [Example 138]"
parameter_measured = "Ki"
recorded_value = 69

[[record]]
compound = "O=C(NC1(c2ccc(C(F)(F)F)cc2)CCC1)c1cc(=O)[nH]c(C2CC2)n1 [Example 143]"
parameter_measured = "Ki"
recorded_value = 11

[[record]]
compound = "Cc1nc(C(=O)N[C@@H](c2ccc(OC(F)(F)F)cc2)C(C)C)cc(=O)[nH]1 [Example 32]"
parameter_measured = "Ki"
recorded_value = 5.1

[[record]]
compound = "C[C@@H](NC(=O)c1cc(=O)[nH]c(C2CC2)n1)c1ccc(C(F)(F)F)cc1F [Example 237]"
parameter_measured = "Ki"
recorded_value = 35

[[record]]
compound = "C[C@@H](NC(=O)c1cc(=O)[nH]c(C2CC2)n1)c1ccc(C(F)(F)F)c(Cl)c1 [Example 232]"
parameter_measured = "Ki"
recorded_value = 17

[[record]]
compound = "COCc1nc(C(=O)N[C@@H](c2ccc(C(F)(F)F)cc2)C2CC2)cc(=O)[nH]1 [Example 118]"
parameter_measured = "Ki"
recorded_value = 18

[[record]]
compound = "Cc1nc(C(=O)N[C@H](C)c2cc(F)c(C(F)(F)F)c(F)c2)cc(=O)[nH]1 [Example 26]"
parameter_measured = "Ki"
recorded_value = 104

[[record]]
compound = "CC[C@@H](NC(=O)c1cc(=O)[nH]c(-c2ccccc2)n1)c1ccc(OC(F)(F)F)cc1 [Example 179]"
parameter_measured = "Ki"
recorded_value = 2.2

[[record]]
compound = "C[C@@H](NC(=O)c1nc[nH]c(=O)c1C1CCC1)c1ccc(C(F)(F)F)cc1 [Example 334]"
parameter_measured = "Ki"
recorded_value = 2370

[[record]]
compound = "Cc1nc(C(=O)NC(C)(C)c2ccc(OC(F)(F)F)cc2)cc(=O)[nH]1 [Example 273]"
parameter_measured = "Ki"
recorded_value = 278

[[record]]
compound = "O=C(N[C@@H](c1ccc(OC(F)(F)F)c(F)c1)C1CC1)c1cc(=O)[nH]c(-c2ncccn2)n1 [Example 93]"
parameter_measured = "Ki"
recorded_value = 9.6

[[record]]
compound = "C[C@@H](NC(=O)c1cc(=O)[nH]c(-c2ccccc2)n1)c1ccc(OC(F)(F)F)cc1 [Example 275]"
parameter_measured = "Ki"
recorded_value = 3

[[record]]
compound = "CC(C)(NC(=O)c1cc(=O)[nH]c(C2CC2)n1)c1ccc(OC(F)(F)F)cc1 [Example 295]"
parameter_measured = "Ki"
recorded_value = 77

